System: NCI-H3122
Assay Explanation: relative viability (nuclei count vs DMSO), 5 days (fraction); higher = more cells survive
Details: first compound 0.05 µM
Observed Property: relative viability
Reply: number alone, nothing else.

Nc1ccn([C@@H]2O[C@H](CO)[C@@H](O)[C@@H]2O)c(=O)n1 [Cytarabine] + CS(=O)(=O)N1CCN(Cc2cc3nc(-c4cccc5[nH]ncc45)nc(N4CCOCC4)c3s2)CC1 [Pictilisib] (partner 1 µM)
0.61

Requested field: relative viability. Item: Nc1ccn([C@@H]2O[C@H](CO)[C@@H](O)[C@@H]2O)c(=O)n1 [Cytarabine] + Nc1nc2[nH]cc(CCc3ccc(C(=O)N[C@@H](CCC(=O)O)C(=O)O)cc3)c2c(=O)[nH]1 [Pemetrexed] (partner 0.2 µM) 0.227

====

Tested on: NCI-H1299
Assay Explanation: relative viability (nuclei count vs DMSO), 5 days (fraction); higher = more cells survive
Details: first compound 0.253 µM
Observed Property: relative viability

Below are worked cases with known answers.
Cc1cnc(-c2cnc(NCCNc3ccc(C#N)cn3)nc2-c2ccc(Cl)cc2Cl)[nH]1 + COc1cc2c(Oc3ccc(NC(=O)C4(C(=O)Nc5ccc(F)cc5)CC4)cc3F)ccnc2cc1OCCCN1CCOCC1 [Foretinib] (partner 0.25 µM)
1.05
O=c1[nH]c2ccccc2n1C1CCN(CCCC(c2ccc(F)cc2)c2ccc(F)cc2)CC1 [Pimozide] + C[C@@H](Oc1cc(-c2cnn(C3CCNCC3)c2)cnc1N)c1c(Cl)ccc(F)c1Cl [Crizotinib] (partner 1 µM)
0.838
O=c1[nH]c2ccccc2n1C1CCN(CCCC(c2ccc(F)cc2)c2ccc(F)cc2)CC1 [Pimozide] + CC1(C)CCC(c2ccc(Cl)cc2)=C(CN2CCN(c3ccc(C(=O)NS(=O)(=O)c4ccc(N[C@H](CCN5CCOCC5)CSc5ccccc5)c(S(=O)(=O)C(F)(F)F)c4)cc3)CC2)C1 [Navitoclax] (partner 0.5 µM)
0.969
Cc1cnc(-c2cnc(NCCNc3ccc(C#N)cn3)nc2-c2ccc(Cl)cc2Cl)[nH]1 + C[C@]1(O)C[C@@H](c2nc(-c3ccc4ccc(-c5ccccc5)nc4c3)c3c(N)nccn32)C1 [Linsitinib] (partner 1 µM)
0.967

Reported relative viability, compound O=c1[nH]c2ccccc2n1C1CCN(CCCC(c2ccc(F)cc2)c2ccc(F)cc2)CC1 [Pimozide] + C[C@]1(O)C[C@@H](c2nc(-c3ccc4ccc(-c5ccccc5)nc4c3)c3c(N)nccn32)C1 [Linsitinib] (partner 1 µM) : ____ 0.945

====

Test system: NCI-H1648
Assay Explanation: relative viability (nuclei count vs DMSO), 5 days (fraction); higher = more cells survive
Details: first compound 0.8 µM
In this section we review reported relative viability values for a set of compounds.
Keep it simple and answer with nothing but the number.

Past entries and their recorded results:
O=c1[nH]c2ccccc2n1C1CCN(CCCC(c2ccc(F)cc2)c2ccc(F)cc2)CC1 [Pimozide] + CC(=O)Nc1cccc(-n2c(=O)n(C3CC3)c(=O)c3c(Nc4ccc(I)cc4F)n(C)c(=O)c(C)c32)c1 [Trametinib] (partner 0.02 µM)
0.34
Cc1cnc(-c2cnc(NCCNc3ccc(C#N)cn3)nc2-c2ccc(Cl)cc2Cl)[nH]1 + O=C(c1cc(Cc2n[nH]c(=O)c3ccccc23)ccc1F)N1CCN(C(=O)C2CC2)CC1 [Olaparib] (partner 8 µM)
1.2
Cc1cnc(-c2cnc(NCCNc3ccc(C#N)cn3)nc2-c2ccc(Cl)cc2Cl)[nH]1 + Cc1cc(Nc2cc(N3CCN(C)CC3)nc(Sc3ccc(NC(=O)C4CC4)cc3)n2)n[nH]1 [Tozasertib] (partner 0.1 µM)
0.465
Cc1cnc(-c2cnc(NCCNc3ccc(C#N)cn3)nc2-c2ccc(Cl)cc2Cl)[nH]1 + O=C(CCCCCCC(=O)Nc1ccccc1)NO [Vorinostat] (partner 1 µM)
0.241

Next compound, please.
Recorded relative viability for O=c1[nH]c2ccccc2n1C1CCN(CCCC(c2ccc(F)cc2)c2ccc(F)cc2)CC1 [Pimozide] + CC(=O)c1c(C)c2cnc(Nc3ccc(N4CCNCC4)cn3)nc2n(C2CCCC2)c1=O [Palbociclib] (partner 0.5 µM) , please? 0.233
